// cross-source set; read-out = Ki; system = Carbonic anhydrase 3 (Homo sapiens)
Report as a plain number; the unit µM is understood.

Examples from the recorded data:
Smiles record: COc1ccc2ccc(=O)oc2c1
Measurement target: Carbonic anhydrase 3 (Homo sapiens)
Unit symbol: µM
Ki: 161
--
Smiles record: Nc1ccc(S(=O)(=O)NCc2ccc(S(N)(=O)=O)cc2)cc1
Measurement target: Carbonic anhydrase 3 (Homo sapiens)
Unit symbol: µM
Ki: 114
--
Smiles record: NS(=O)(=O)c1nnc(NC(=O)C23CC4CC(CC(C4)C2)C3)s1
Measurement target: Carbonic anhydrase 3 (Homo sapiens)
Unit symbol: µM
Ki: 300
--
Smiles record: O=C(O)/C=C/c1ccc(O)cc1
Measurement target: Carbonic anhydrase 3 (Homo sapiens)
Unit symbol: µM
Ki: 7.57

Field: next molecule
Find the recorded Ki belonging to NCCNCCN and report it.
117

====

// cross-source set; read-out = Ki; system = Carbonic anhydrase 3 (Homo sapiens)
Report as a plain number; the unit µM is understood.

Examples from the recorded data:
Smiles record: Cc1cc(C)[n+](CCc2ccc(S(N)(=O)=O)cc2)c(C)c1
Measurement target: Carbonic anhydrase 3 (Homo sapiens)
Test readout: Ki
Unit symbol: µM
Reported measurement: 300

Smiles record: O=C(/C=C/c1ccc(O)cc1)C[C@@H]1O[C@H](CO)[C@H](O)[C@H](O)[C@H]1O
Measurement target: Carbonic anhydrase 3 (Homo sapiens)
Test readout: Ki
Unit symbol: µM
Reported measurement: 8.4

Smiles record: COc1ccc2oc(=O)c(C(=O)O)cc2c1
Measurement target: Carbonic anhydrase 3 (Homo sapiens)
Test readout: Ki
Unit symbol: µM
Reported measurement: 9

// map NCCNCCNCCN to recorded Ki (system: Carbonic anhydrase 3 (Homo sapiens))
48

Another compound to check: COc1cc(C(=O)O)cc(OC)c1O
8.58

Another compound to check: CC1(C)OB(c2ccc(NS(N)(=O)=O)cc2)OC1(C)C
8.77

Another compound to check: NCCCCNCCCN
11.5

Another compound to check: O=C(O)c1cc2ccccc2oc1=O
6.6

Another compound to check: NS(=O)(=O)OCCCCCCCCOS(N)(=O)=O
1.13

Another compound to check: CC(C)(C)OC(=O)N(CCCCN(CCCNC(=O)C(F)(F)F)C(=O)OC(C)(C)C)CCCNC(=O)C(F)(F)F
112

====

// cross-source set; read-out = Ki; system = Carbonic anhydrase 3 (Homo sapiens, UniProt P07451)
Sequence (P07451 whole entry): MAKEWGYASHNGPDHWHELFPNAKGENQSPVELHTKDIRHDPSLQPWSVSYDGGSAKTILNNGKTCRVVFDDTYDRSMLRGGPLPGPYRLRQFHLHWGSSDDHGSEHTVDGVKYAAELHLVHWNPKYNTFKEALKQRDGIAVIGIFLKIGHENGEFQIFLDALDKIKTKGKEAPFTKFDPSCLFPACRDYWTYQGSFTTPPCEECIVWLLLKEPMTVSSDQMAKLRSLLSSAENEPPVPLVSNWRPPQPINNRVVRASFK

Examples from the recorded data:
Smiles record: Cc1ccc(S(=O)(=O)NC(=O)Nc2ccc(S(N)(=O)=O)cc2)cc1
Measurement target: Carbonic anhydrase 3 (Homo sapiens, UniProt P07451)
Test readout: Ki
Reported measurement: > 100 µM

Smiles record: NS(=O)(=O)c1ccc(CCNC(=O)CCCNC(=O)Nc2ccccc2)cc1
Measurement target: Carbonic anhydrase 3 (Homo sapiens, UniProt P07451)
Test readout: Ki
Reported measurement: > 21 µM

Smiles record: CC(=O)OC[C@H]1O[C@@H](CC(=O)/C=C/c2cccc(O)c2)[C@H](OC(C)=O)[C@@H](OC(C)=O)[C@@H]1OC(C)=O
Measurement target: Carbonic anhydrase 3 (Homo sapiens, UniProt P07451)
Test readout: Ki
Reported measurement: > 100 µM

Field: next compound
Find the recorded Ki belonging to Cc1ccc2oc(=O)c(C(=O)O)cc2c1 and report it.
> 500 µM
